target: UniProtKB P9WHJ3; test: Fluorescence Cell-Free Homogeneous Dose Retest to Identify Inhibitors of RecA-Intein Splicing Activity. [Related pubchem assays (depositor defined):AID2097, AID2223, AID489010, AID492950]; format: functional
The source made the active and inactive calls. Cut-off read from the data, not from the text of the source: actives have a measured EC50 and inactives only a lower limit.
Give one outcome, nothing more. List: true = active, false = inactive

Consider the following illustrative entries.
COMPOUND: CCC(C)[C@H](NC(=O)NC1CCN(Cc2ccccc2)CC1)C(=O)OC (stereo partly drawn)
TARGET_OR_SYSTEM: UniProtKB P9WHJ3
ASSIGNED_CATEGORY: true
//
COMPOUND: O=C(CCl)N1c2ccccc2CCc2ccccc21
TARGET_OR_SYSTEM: UniProtKB P9WHJ3
ASSIGNED_CATEGORY: true
//
COMPOUND: CCOCC(=O)NCc1ccc2c(c1)cc(C)n2C
TARGET_OR_SYSTEM: UniProtKB P9WHJ3
ASSIGNED_CATEGORY: true

Task item: What did this assay record as the result for "COC(=O)Cc1cc(=O)n(-c2ccccc2)[nH]1" ?
Reply: true

Task item: What did this assay record as the result for "COc1ccc(C(=O)/C(=C/c2cccs2)c2nc3ccccc3o2)cc1" ?
Reply: false

Task item: What did this assay record as the result for "COc1ccc(CN(C(=O)CSc2nnc(-c3ccccc3C)o2)c2ccc(F)cc2)cc1" ?
Reply: true

Task item: What did this assay record as the result for CCCc1[nH][nH]c(=O)c1C(c1ccccc1)C(C#N)C#N (stereo not drawn) ?
Reply: true

Task item: What did this assay record as the result for "COc1ccc(N2CCN(C(=O)c3ccc(Oc4ccc(C(F)(F)F)cn4)cc3)CC2)cc1" ?
Reply: false

Task item: What did this assay record as the result for "Cc1ccc(S(=O)(=O)Nc2c(O)ccc3ccccc23)cc1" ?
Reply: true

Task item: What did this assay record as the result for "CC(=O)Oc1ccc2c(=O)oc(-c3ccccc3C)nc2c1" ?
Reply: true

Task item: What did this assay record as the result for "CC(C)(C)c1c(Cl)c(O)c(-c2ccccc2)c(=O)n1-c1ccccc1" ?
Reply: true

Task item: What did this assay record as the result for "CC(=O)Oc1c(Br)cc(N(C(C)=O)S(=O)(=O)c2ccccc2)c2ccccc12" ?
Reply: true

Task item: What did this assay record as the result for "C/C(=N\NC(=O)Cc1cc(O)[nH]n1)c1cccc([N+](=O)[O-])c1" ?
Reply: true

###

test system: H4; assay: Luminescence Cell-Based Dose Response HTS to Identify Activators of 5'UTR Stem-Loop Driven Prion Protein mRNA Translation in H4 Neuroglioblastoma Cells. [Related pubchem assays: 1829 (Project Summary), 1814 (Primary HTS)]; assay type: functional; settings: Homo sapiens
Active and inactive are the calls of the source. No stated cut-off is given here; in the data, actives have a measured EC50 and inactives only a lower limit.
PARAMETER_MEASURED: EC50

Solved cases below.
MOLECULE: COc1ccccc1N=C(S)NNC(=O)c1ccc(Cl)cc1Cl
TARGET_OR_SYSTEM: H4
EC50: 61.7 µM (active)
//
MOLECULE: Cc1c(OCC(=O)NCc2cccnc2)ccc2c3c(c(=O)oc12)CCC3
TARGET_OR_SYSTEM: H4
EC50: 15.4 µM (active)
//
MOLECULE: C(=N\C(/N=C/c1ccco1)c1ccco1)/c1ccco1
TARGET_OR_SYSTEM: H4
EC50: > 120 µM (not active)

Now let's try a different one.
Task item: Name the recorded EC50 for "NC(=NOC(=O)CSc1ccccc1)c1ccc([N+](=O)[O-])cc1" .
Reply: > 120 µM (not active)
